Data credit: patent US8999973B2

# Measurement Target: Bcr-Abl^wt (Homo sapiens)
# Assay: Kinase activation assay (IC50), fluorescence polarization tyrosine kinase assay kit
# Condition Info: kinase domain (Millipore), Poly (Glu, Tyr) 4:1 substrate, FP readout
pIC50: −log10 of the molar value.
Please provide measured pIC50 for the entries that follow.

Compound	Measurement Target	Observed Result
COc1ccc(C(=O)Nc2cc(-n3cnc(C)c3)cc(C(F)(F)F)c2)cc1NC(=O)c1csc2c(NC3CC3)ncnc12 [Example 36]	Bcr-Abl^wt (Homo sapiens)	7.00 to 9.00
CN(C)[C@H]1CCN(c2cc(C(=O)Nc3ccc(F)c(NC(=O)c4csc5c(NC6CC6)ncnc45)c3)cc(C(F)(F)F)c2)C1 [Example 107]	Bcr-Abl^wt (Homo sapiens)	7.00 to 9.00

Value of pIC50 reported for the compound COc1cc(C(=O)Nc2ccc(C)c(NC(=O)c3csc4c(N)ncnc34)c2)nc2ccccc12 [Example 56] is 6.00 to 7.00

----------
# Measurement Target: Bcr-Abl^wt (Homo sapiens)
# Assay: Kinase activation assay (IC50), fluorescence polarization tyrosine kinase assay kit
# Condition Info: kinase domain (Millipore), Poly (Glu, Tyr) 4:1 substrate, FP readout
pIC50: −log10 of the molar value.
Value Kind: pIC50

Known pIC50 results, listed for orientation:
Compound String	Value Kind	Observed Result
Cc1ccc(NC(=O)c2cc(NCCCN(C)C)cc(C(F)(F)F)c2)cc1NC(=O)c1csc2c(NC3CC3)ncnc12	pIC50	7.00 to 9.00
Cc1ccc(NC(=O)c2cc(-n3cccc3)cc(C(F)(F)F)c2)cc1NC(=O)c1csc2c(N)ncnc12	pIC50	7.00 to 9.00
CCN1CCN(c2cc(NC(=O)c3ccc(C)c(/C=C/c4csc5c(N)ncnc45)c3)cc(C(F)(F)F)c2)CC1	pIC50	7.00 to 9.00
Cc1ccc(NC(=O)c2cccc(C(F)(F)F)c2)cc1NC(=O)c1csc2c(N)ncnc12	pIC50	7.00 to 9.00
Cc1ccc(NC(=O)c2cc(C3CC3)on2)cc1NC(=O)c1csc2c(N)ncnc12	pIC50	7.00 to 9.00
COc1cc(OC)cc(C(=O)Nc2ccc(C)c(NC(=O)c3csc4c(N)ncnc34)c2)c1	pIC50	7.00 to 9.00
CCN1CCN(Cc2ccc(C(=O)Nc3ccc(C)c(NC(=O)c4csc5c(N)ncnc45)c3)cc2C(F)(F)F)CC1	pIC50	7.00 to 9.00
Cc1cc(C(=O)Nc2ccc(C)c(NC(=O)c3csc4c(N)ncnc34)c2)n(Cc2ccc(F)cc2)n1	pIC50	5.00 to 6.00

Would you mind listing pIC50 for each of the following compounds?
1. Cc1ccc(NC(=O)c2cccc(C(F)(F)F)c2)cc1NC(=O)c1csc2c(NC3CCCC3)ncnc12
2. Cc1ccc(C(=O)Nc2cccc(C(F)(F)F)c2)cc1NC(=O)c1csc2c(NC(C)C)ncnc12
3. Cc1ccc(NC(=O)c2cccc(C(F)(F)F)c2)cc1/C=C/c1csc2c(N)ncnc12
4. COc1cc(NC(=O)c2ccc(C)c(NC(=O)c3csc4c(N)ncnc34)c2)cc(OC)c1

1: 7.00 to 9.00; 2: 7.00 to 9.00; 3: 6.00 to 7.00; 4: 7.00 to 9.00

----------
Please provide measured pIC50 for the entries that follow.
# Measurement Target: Bcr-Abl^T315I (Homo sapiens, UniProt P00519, T315I)
# Sequence (P00519 242-493 T315I limits assumed): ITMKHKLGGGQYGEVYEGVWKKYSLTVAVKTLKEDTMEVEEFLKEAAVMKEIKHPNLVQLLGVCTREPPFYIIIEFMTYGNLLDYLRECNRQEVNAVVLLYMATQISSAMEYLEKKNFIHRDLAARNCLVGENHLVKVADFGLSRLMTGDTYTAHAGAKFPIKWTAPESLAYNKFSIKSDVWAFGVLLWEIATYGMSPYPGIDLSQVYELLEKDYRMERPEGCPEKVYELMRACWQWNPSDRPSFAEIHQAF
# Assay: Kinase activation assay (IC50), fluorescence polarization tyrosine kinase assay kit
# Condition Info: T315I mutation kinase domain (Millipore), Poly (Glu, Tyr) 4:1 substrate, FP readout
pIC50: −log10 of the molar value.

Would you mind listing pIC50 for each of the following molecules?
1. CN(C)[C@H]1CCN(c2cc(C(=O)Nc3ccc(F)c(NC(=O)c4csc5c(NC6CC6)ncnc45)c3)cc(C(F)(F)F)c2)C1
2. Cc1cn(-c2cc(NC(=O)c3ccc(C)c(NC(=O)c4csc5c(NC6CC6)ncnc45)c3)cc(C(F)(F)F)c2)c(C)n1
3. Cc1cc(C(=O)Nc2ccc(C)c(NC(=O)c3csc4c(N)ncnc34)c2)n(Cc2ccc(F)cc2)n1
4. Cc1ccc(NC(=O)c2cc(NC3CCN(C)CC3)cc(C(F)(F)F)c2)cc1NC(=O)c1csc2c(NC3CC3)ncnc12

1. 6.00 to 7.00
2. 7.00 to 9.00
3. 5.00 to 6.00
4. 7.00 to 9.00

Would you mind listing pIC50 for each of the following molecules?
1. Cc1ccc(C(=O)Nc2ccc(CO)c(C(F)(F)F)c2)cc1NC(=O)c1csc2c(NC3CC3)ncnc12
2. CCN1CCN(c2ccc(NC(=O)c3ccc(C)c(NC(=O)c4csc5c(NC6CC6)ncnc45)c3)cn2)CC1
3. Cc1ccc(C(=O)Nc2ccc(N3CCOCC3)nc2)cc1NC(=O)c1csc2c(NC3CC3)ncnc12

7.00 to 9.00
5.00 to 6.00
5.00 to 6.00
